Reported GI50 for target or system HOP-62 NSCLC, by entry.

Return reported GI50 for target or system HOP-62 NSCLC, item "COc1ccc(Nc2c3ccccc3nc3c2c2ccccc2n3C)cc1" .
> 100 µM

Return reported GI50 for target or system HOP-62 NSCLC, item "Cn1cc(-c2csc(-c3c[nH]c4ncccc34)n2)c2cc(Br)cnc21" .
2.39 µM

Return reported GI50 for target or system HOP-62 NSCLC, item "O=S(=O)(NCCNc1nccc(-c2c(-c3cccc(O)c3)nc3sccn23)n1)c1ccc(F)cc1" .
13.8 µM

Return reported GI50 for target or system HOP-62 NSCLC, item "COc1cc(/C=C/C(=O)C(=Cc2ccc(F)c(F)c2)C(=O)/C=C/c2ccc(O)c(OC)c2)ccc1O" .
2.87 µM

Return reported GI50 for target or system HOP-62 NSCLC, item "O=C(CCCn1c2c(sc3ncccc32)c(=O)n2nnc(-c3ccccc3)c12)NCCc1cnc[nH]1" .
16.5 µM

Return reported GI50 for target or system HOP-62 NSCLC, item O=C1NC(=NCC(CO)c2ccccc2)S/C1=C\c1ccc2ncccc2c1 (configuration not stated) .
23.9 µM

Return reported GI50 for target or system HOP-62 NSCLC, item "Fc1ccc(-c2nc(-c3nc4ccc(Cl)cc4[nH]3)cc3c2[nH]c2ccccc23)cc1" .
3.87 µM
